Measured hepatocyte CLint at 1 uM, listed per entry.
- procedure_details: Hepatocyte stability assay, mouse hepatocytes
- Type: in vitro ADME
- experimental_context: male, CD-1, mouse, cryopreserved hepatocytes, pH 7.3, 0.7 million cells per mL; 1 uM compound

Check out these entries, answers already filled in.
# compound, observed
records = [
    ("O=C(N[C@H]1CC[C@@H](Oc2nc(N3CCOCC3)cc3ncccc23)CC1)c1cc[nH]c1 [Compound 140]", "< 8.2 µL/min/1e6 cells"),
    ("c1cnc(N[C@H]2CC[C@@H](Oc3nc(N4CCOCC4)cc4ncccc34)CC2)nc1 [Compound 20a]", "> 8.2 µL/min/1e6 cells"),
    ("O=C(N[C@H]1CC[C@@H](Oc2nc(N3CCOCC3)cc3ncccc23)CC1)c1cccnc1 [Compound 115]", "> 8.2 µL/min/1e6 cells"),
    ("COc1cnc(N[C@H]2CC[C@@H](Oc3nc(N4CCOCC4)cc4ncc(NS(C)(=O)=O)cc34)CC2)nc1 [Compound 203]", "< 8.2 µL/min/1e6 cells"),
    ("NS(=O)(=O)c1cnc(N[C@H]2CC[C@@H](Oc3nc(N4CCOCC4)cc4ncccc34)CC2)nc1 [Compound 46]", "< 8.2 µL/min/1e6 cells"),
    ("O=C(N[C@H]1CC[C@@H](Oc2nc(N3CCOCC3)cc3ncccc23)CC1)c1ccncn1 [Compound 118]", "> 8.2 µL/min/1e6 cells"),
]

Below: the item to evaluate.
// query Could you share which hepatocyte CLint at 1 uM value was measured for NC(=O)c1cnc(N[C@H]2CC[C@@H](Oc3nc(N4CCOCC4)cc4ncccc34)CC2)nc1 [Compound 52] ?
// result < 8.2 µL/min/1e6 cells
